tested on: Cyperus serotinus, Rottb.; assay: Preemergence weed control under flooded paddy conditions, CYPSE (Flatsedge); format: in vivo; conditions: Rate 0.1250 kg/ha, preemergence, rated 3-4 weeks after treatment; note: meaning of each grade not given here
Catalogue of compounds with associated herbicidal effect rating, CYPSE
Measured metric: herbicidal effect rating, CYPSE

> print(dat)
                                   compound  numeric.value
1  C=CC(CCCC)OC(=O)COc1ccc(C)cc1-c1nsc2ccc(-n3c(=O)cc(C(F)(F)F)n(C)c3=O)cc12 (stereo not shown) [Example 520]            0.0
2  CC(Oc1ccccc1-c1nsc2ccc(-n3c(=O)cc(C(F)(F)F)n(C)c3=O)cc12)C(=O)N(C)C (stereo not shown) [Example 551]            0.0
3  C=CCOC(=O)/C=C/c1nsc2ccc(-n3c(=O)cc(C(F)(F)F)n(C)c3=O)cc12 [Example 566]            0.0
4  Cc1ccc(OCC(=O)OCCC2OCC(C)(C)CO2)c(-c2nsc3ccc(-n4c(=O)cc(C(F)(F)F)n(C)c4=O)cc23)c1 [Example 533]            3.0
5  CCCS(=O)(=O)NC(=O)COc1ccccc1-c1nsc2ccc(-n3c(=O)cc(C(F)(F)F)n(C)c3=O)cc12 [Example 556]            9.0
6  CCOC(=O)C(F)(F)Oc1ccc(C)cc1-c1nsc2ccc(-n3c(=O)cc(C(F)(F)F)n(C)c3=O)cc12 [Example 559]            0.0
7  Cc1ccc(OCC(=O)OCCCCCO[Si](C)(C)C(C)(C)C)c(-c2nsc3ccc(-n4c(=O)cc(C(F)(F)F)n(C)c4=O)cc23)c1 [Example 534]            0.0
